System: COLO 205 colon
Test: NCI tumour cell line growth inhibition, 48 h; in the data active means GI50 below about 0.43 µM; inactive means the rest
// allowed return values: active, inactive

NC(=NC1CCCCCCC1)c1ccc(N2CCN(c3ccc(C(N)=NC4CCCCCCC4)cc3)CC2)cc1    inactive
COc1ccn2c(C(C)=O)cc(C(=O)c3ccc4c(c3)Sc3ccccc3N4)c2c1    active
COc1cc2c3c(n(CCCNCC(OC)OC)c(=O)c2cc1OC)-c1cc2c(cc1C3=O)OCO2    inactive
CC1=CCC(OC(=O)C(C)(C)CCC(O)(C(=O)OC2(C(C)C)CCC3(C)OC3C2)C(C)C)(C(C)C)CC1 (configuration not stated)    inactive
Cn1ccnc1C(=O)/C=C/c1ccc(CC(=O)Nc2ccc(S(F)(F)(F)(F)F)cc2)cc1    inactive
C=C(C)[C@@H]1CC[C@]2(C(=O)NCCNCCNCCN)CC[C@]3(C)[C@H](CC[C@@H]4[C@@]5(C)CC[C@H](O)C(C)(C)[C@@H]5CC[C@]43C)[C@@H]12    inactive

Attention now shifts to the item below.
Would you mind telling me which call this test gave CC(CN1CCN(C)CC1)CN1c2ccccc2Sc2ccc(C(F)(F)F)cc21 (configuration not stated) ?
inactive

* * *

Tested on: HT29 colon
Experiment: NCI tumour cell line growth inhibition, 48 h; in the data active = GI50 below about 0.43 µM; inactive = the rest
// allowed return values: active, inactive

Worked examples, 8 compounds total:
CCN1CCN(CC(=O)Nc2nc3ccc(NCc4ccc(Cl)cc4)cc3s2)CC1    inactive
N=c1c2c(-c3ccccc3)c(-c3ccccc3)n(Cc3ccccc3)c2ncn1CCCO    active
CN(C)c1ccc(-c2cc(-c3ccc(Nc4nc(Nc5ccccc5)nc(Nc5ccc(Cl)cc5)n4)cc3)nc(N)n2)cc1    inactive
Cc1ccc(/C=C2/SC(Nc3nc(-c4nc(NC5=NC(=O)/C(=C\c6ccc(C)cc6)S5)sc4C)c(C)s3)=NC2=O)cc1    inactive
C[C@]12CC[C@@H]3c4ccc(O)cc4CC[C@H]3[C@@H]1CC[C@@H]2NS(=O)(=O)c1cccc(C(F)(F)F)c1    inactive
Cc1nc2sc(C(=O)Nc3cccc4ccccc34)c(N)c2cc1C(=O)/C=C/c1ccccc1    active
CCc1cccc2c3c(sc12)C(c1ccc(Cl)cc1)C(C#N)=C(N)O3 (centres undefined)    inactive
CC(CN1CCN(C)CC1)CN1c2ccccc2Sc2ccc(C(F)(F)F)cc21 (centres undefined)    inactive

Attention now shifts to the item below.
Would you mind telling me which call this test gave Cn1c(=O)c(Oc2ccc(F)cc2F)cc2cnc(NC(CO)CO)nc21 ?
inactive

* * *

System: HCC-2998 colon
Experiment: NCI tumour cell line growth inhibition, 48 h
ASSAY_READOUT: GI50

Study these solved cases before continuing.
CC1=CCC(OC(=O)C(C)(C)CCC(O)(C(=O)OC2(C(C)C)CCC3(C)OC3C2)C(C)C)(C(C)C)CC1 (stereo not given)    2.13 µM
CCc1cccc2c3c(sc12)C(c1ccc(Cl)cc1)C(C#N)=C(N)O3 (stereo not given)    1.32 µM
C[C@]12CC[C@@H]3c4ccc(O)cc4CC[C@H]3[C@@H]1CC[C@@H]2NS(=O)(=O)c1cccc(C(F)(F)F)c1    4.58 µM
O=Cc1cn(Cc2cccc(Cl)c2)c2ccccc12    12.5 µM

Now consider a different compound.
Requested read-out: GI50. Entry: O=C1C=C[C@@]23C[C@@H](Nc4c(O)c5c6c(c42)=NCCC=6C=N5)SC3=C1
4.39 µM

* * *

Tested on: MOLT-4 leukemia
Assay: NCI tumour cell line growth inhibition, 48 h
Items are presented alongside their recorded TGI.

NC1=C(Br)C(=O)c2ncccc2C1=O    4.83 µM
CCOP(=O)(OCC)/C(C#N)=C/c1ccc(-c2ccc(F)cc2F)o1    28.4 µM
C=C(C)[C@@H]1CC[C@]2(C(=O)NCCNCCNCCN)CC[C@]3(C)[C@H](CC[C@@H]4[C@@]5(C)CC[C@H](O)C(C)(C)[C@@H]5CC[C@]43C)[C@@H]12    > 100 µM

Requested read-out: TGI. Entry: CCCc1c(O)c(=O)c2c(OC)cc(OC)c3c4c(OC)cc(OC)c5c(=O)c(O)c(CCC)c(c1c23)c54
1.23 µM

Requested read-out: TGI. Entry: Nc1c(Br)c(=O)[nH]c(=O)n1COCCO
> 100 µM

Requested read-out: TGI. Entry: CC(C)[C@@]12C[C@@H](OC(=O)COC(=O)/C=C/c3ccccc3)[C@@](C)(O1)[C@@H]1CC[C@@H](C)[C@H]1[C@@H]2OC(=O)/C=C/c1ccccc1
> 100 µM

Requested read-out: TGI. Entry: CCN(CC)CCC1CCCCN1CC(=O)N1c2ccccc2NC(=O)c2ccccc21 (stereo not given)
> 100 µM

Requested read-out: TGI. Entry: NNC(=O)CCC(=O)Nc1cc(Cl)c(Cl)cc1Cl
> 100 µM

Requested read-out: TGI. Entry: COc1ccc(C(=O)COc2cccc(/C=C3\CSc4ccccc4C3=O)c2)cc1
19.3 µM

Requested read-out: TGI. Entry: COc1c(OC)c(N)c2cc(C)c(=O)c(C)cc2c1N
> 100 µM

Requested read-out: TGI. Entry: CC1(C)C2CCC(N)(C2)C1N (stereo not given)
> 100 µM

Requested read-out: TGI. Entry: Nc1ccc(C2NC(=O)Cc3c2ccc2ccccc32)cc1 (stereo not given)
> 100 µM

Requested read-out: TGI. Entry: O=c1c2cc(Br)ccc2nc(-c2ccccc2Cl)n1NCC1(O)OCC(O)C(O)C1O (stereo not given)
> 100 µM

Requested read-out: TGI. Entry: Cn1c(=O)c(Oc2ccc(F)cc2F)cc2cnc(NC(CO)CO)nc21
> 25 µM

Requested read-out: TGI. Entry: COC(=O)C1CC=C(SC(=O)c2ccccc2)N1C(=O)c1ccccc1 (stereo not given)
> 100 µM

Requested read-out: TGI. Entry: O=C1c2ccc3c4c5ccc(c24)C(=O)N1CCCOCCCCOCCCNCc1ccc(cc1)CNCCCOCCCCOCCCN(C3=O)C5=O
2.62 µM

Requested read-out: TGI. Entry: COc1cc(/C=C/C(=O)OC2C(O)C3CC(OC(=O)c4cc(OC)c(OC)c(OC)c4)CC2N3C)cc(OC)c1OC (stereo not given)
> 50 µM

Requested read-out: TGI. Entry: CCOC(=O)NC(C(=O)OCC)C(F)(F)F (stereo not given)
> 100 µM

Requested read-out: TGI. Entry: Cc1nc(-n2[nH]c(C)c(CCO)c2=O)[nH]c(=O)c1CCO
> 100 µM

Requested read-out: TGI. Entry: C(=C\c1nccs1)/c1cccc(/C=C/c2nccs2)n1
> 50 µM

* * *

Test system: M14 melanoma
Assay: NCI tumour cell line growth inhibition, 48 h; in the data active = GI50 below about 0.43 µM; inactive = the rest
// allowed return values: active, inactive

Worked examples, 3 compounds total:
CN1CCN(c2nc(NCCCCNc3ccnc4cc(Cl)ccc34)c3ccccc3n2)CC1    inactive
COc1cc2c3c(n(CCCNCC(OC)OC)c(=O)c2cc1OC)-c1cc2c(cc1C3=O)OCO2    active
CN(c1ccc(NC(=O)Nc2ccc(OC(F)(F)F)cc2)cc1)c1ccnc(Nc2cccc(S(N)(=O)=O)c2)n1    inactive

Would you mind telling me which call this test gave CC(C)C[C@H](NC(=O)[C@H]1O[C@@H]1C(=O)O)C(=O)NCCc1ccc(O)cc1 ?
inactive

Would you mind telling me which call this test gave COc1ccc(C(=O)COc2cccc(/C=C3\CSc4ccccc4C3=O)c2)cc1 ?
inactive

Would you mind telling me which call this test gave CCN1CCN(CC(=O)Nc2nc3ccc(NCc4ccc(Cl)cc4)cc3s2)CC1 ?
inactive

Would you mind telling me which call this test gave C[C@H]1[C@H](C)CC[C@]2(C(=O)N3CCN(C)CC3)CC[C@]3(C)C(=CC[C@@H]4[C@@]5(C)C/C(=C/c6cccnc6)C(=O)C(C)(C)[C@@H]5CC[C@]43C)[C@H]12 ?
inactive

Would you mind telling me which call this test gave C/C([O-])=C1\Cc2ccccc2C1=O.C/C([O-])=C1\Cc2ccccc2C1=O.CC[O-].CC[O-].[Ti+4] ?
inactive

* * *

System: EKVX NSCLC
Assay: NCI tumour cell line growth inhibition, 48 h
Items are presented alongside their recorded TGI.
Dear colleague, please return just the value in µM, with no unit written.

Study these solved cases before continuing.
NC(=O)c1cc([N+](=O)[O-])c(Cl)c([N+](=O)[O-])c1    35.7
C(=Nc1ccc(-c2cc(-c3ccccc3)nc3ccc4ccccc4c23)cc1)c1ccccc1    92.8
COc1ccc(C/C(C)=C(\c2ccc(OCCN3CCOCC3)cc2)c2ccc(OC(=O)Cc3ccccc3)cc2)cc1    3.49

Now consider a different compound.
Requested read-out: TGI. Entry: O=C(c1ccccc1)[C@H]1Nc2ccc(Cl)cc2[C@H]2OCCC[C@@H]12
50.4

* * *

System: T-47D breast
Assay: NCI tumour cell line growth inhibition, 48 h
ASSAY_READOUT: GI50

Study these solved cases before continuing.
COc1ccn2c(C(C)=O)cc(C(=O)c3ccc4c(c3)Sc3ccccc3N4)c2c1    44.7 µM
Cc1ccc(/C=C2/SC(Nc3nc(-c4nc(NC5=NC(=O)/C(=C\c6ccc(C)cc6)S5)sc4C)c(C)s3)=NC2=O)cc1    22.3 µM
NC1=C(Br)C(=O)c2ncccc2C1=O    1.69 µM
C[C@H]1[C@H](C)CC[C@]2(C(=O)N3CCN(C)CC3)CC[C@]3(C)C(=CC[C@@H]4[C@@]5(C)C/C(=C/c6cccnc6)C(=O)C(C)(C)[C@@H]5CC[C@]43C)[C@H]12    0.511 µM
Cn1ccnc1C(=O)/C=C/c1ccc(CC(=O)Nc2ccc(S(F)(F)(F)(F)F)cc2)cc1    3.1 µM

Requested read-out: GI50. Entry: CC(C)C[C@H](NC(=O)[C@H]1O[C@@H]1C(=O)O)C(=O)NCCc1ccc(O)cc1
> 100 µM

Requested read-out: GI50. Entry: N#Cc1c2cccnc2c2nnc3cc(Cl)c(Cl)cc3n12
1.6 µM

Requested read-out: GI50. Entry: CN(C)c1ccc(-c2cc(-c3ccc(Nc4nc(Nc5ccccc5)nc(Nc5ccc(Cl)cc5)n4)cc3)nc(N)n2)cc1
3.04 µM

Requested read-out: GI50. Entry: C=C(C)[C@@H]1CC[C@]2(C(=O)NCCNCCNCCN)CC[C@]3(C)[C@H](CC[C@@H]4[C@@]5(C)CC[C@H](O)C(C)(C)[C@@H]5CC[C@]43C)[C@@H]12
10.9 µM

Requested read-out: GI50. Entry: NC(=NC1CCCCCCC1)c1ccc(N2CCN(c3ccc(C(N)=NC4CCCCCCC4)cc3)CC2)cc1
25.8 µM

Requested read-out: GI50. Entry: N#Cc1cccc(C(=O)Nc2cccc(NC(=O)c3cccc(C#N)c3)c2)c1
> 100 µM

Requested read-out: GI50. Entry: COC(=O)c1cc(-c2cc(OC)c(OC)c(OC)c2)[nH]c1N/N=C/c1c(Cl)cccc1Cl
1.92 µM
